System: PC-3
method_summary: Cytotoxicity against human PC-3 cells assessed as reduction in cell viability after 48 hrs
Assay type: functional, cell-based
condition_notes: PC-3, 48 h
experimental_readout: IC50

Consider the reported IC50 for these compounds:
{"compound": "O=[N+]([O-])c1ccc(CN2CCC(n3cc(CC(OCc4cc(-c5ccc(F)cc5)no4)c4ccc(Br)cc4)nn3)CC2)cc1 (stereo not drawn)", "subject_of_test": "PC-3", "reported_result": "> 25 µM"}
{"compound": "COc1cccc(-c2cc(COC(Cc3cn(C4CCN(Cc5ccc([N+](=O)[O-])cc5)CC4)nn3)c3ccc(Br)cc3)on2)c1 (stereo not drawn)", "subject_of_test": "PC-3", "reported_result": "> 25 µM"}

Requested read-out: IC50. Entry: COc1ccccc1-c1cc(COC(Cc2cn(C3CCN(Cc4ccc([N+](=O)[O-])cc4)CC3)nn2)c2ccc(Br)cc2)on1 (stereo not drawn)
> 25 µM
